System: Saccharomyces cerevisiae;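 also: PSI derived as read-weighted mean over the 8 sorting bins, only variants exceeding 10 total reads kept, mCherry placed adjacent to the peptide and sfGFP distal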
Test: protein stability index of tFT-peptide fusion in wild type (PSI (0-1 scale)); higher = more stable (slower turnover)
Conditions: genetic background: wild type
parameter: protein stability index
Keep it simple and answer with nothing but the number.

Reference set, count: 3
What value of protein stability index has been recorded for this entry: CLVSLPIFLFFR 0.0521

Can you share its protein stability index? I mean this sequence: LVVYLSCVICIN 0.0482

Report protein stability index for RLIQPFPVQFLN please. 0.09

Others:
Given the entry AITLPMCPLMLR , report its measured protein stability index. 0.212

Look up protein stability index: LKILRQKMFHQN 0.206

Which protein stability index is listed for PDKRAHLIKLLN ? 0.112

What protein stability index value was documented for this sequence, RSLFVLLPLYFR ? 0.265

Fill blank: measured protein stability index of the sequence ARWRVGLKRGAS is ____. 0.627

Hey, just so you know, these numbers are from the supplement of paper PMC10724198.
